# target system: T1, Recombinant Human TNF-α/TNFSF1A (human, UniProt P01375 77-233)
# T1 construct: Bought reagent (R&D Systems 210-TA); also called hTNF-α; huTNF-α
# T1 sequence (P01375 77-233 limits assumed): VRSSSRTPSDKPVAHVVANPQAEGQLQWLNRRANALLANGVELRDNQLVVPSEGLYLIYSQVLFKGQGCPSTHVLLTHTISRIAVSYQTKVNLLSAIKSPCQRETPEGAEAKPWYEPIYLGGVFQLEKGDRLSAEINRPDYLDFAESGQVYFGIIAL
# assay procedure: SPR (Biacore), antibody captured, TNF-α in solution
property label: pKd
Keep it numeric: pKd is minus log10 of the concentration in mol/L.

Worked cases, answers included:
# binder, pKd
measured = [
    ("AB252 (antibody, V domains shown, also called hMAK195VH.2 / hMAK195VL.1) VH: EVQLVESGGGLVQPGGSLRLSCAASGFTFSDYGVNWVRQAPGKGLEWVSMIWGDGSTDYDSTLKSRFTISRDNSKNTLYLQMNSLRAEDTAVYYCAREWHHGPVAYWGQGTLVTVSS VL: DIQMTQSPSSLSASVGDRVTITCKASQAVSSAVAWYQQKPGKAPKLLIYWASTRHTGVPSRFSGSGSGTDFTLTISSLQPEDFATYYCQQHYSTPFTFGQGTKLEIK", 10.06),
    ("AB240 (antibody, V domains shown, also called hMAK195VH.1 / hMAK195VL.1) VH: EVQLQESGPGLVKPSETLSLTCTVSGGSISDYGVNWIRQPPGKGLEWIGMIWGDGSTDYDSTLKSRVTISVDTSKNQFSLKLSSVTAADTAVYYCAREWHHGPVAYWGQGTLVTVSS VL: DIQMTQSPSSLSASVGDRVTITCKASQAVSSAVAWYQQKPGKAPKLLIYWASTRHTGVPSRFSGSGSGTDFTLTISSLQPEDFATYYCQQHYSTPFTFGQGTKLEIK", 8.85),
]

Proceed to the following item.
Param item = AB254 (antibody, V domains shown, also called hMAK195VH.2 / hMAK195VL.2) VH: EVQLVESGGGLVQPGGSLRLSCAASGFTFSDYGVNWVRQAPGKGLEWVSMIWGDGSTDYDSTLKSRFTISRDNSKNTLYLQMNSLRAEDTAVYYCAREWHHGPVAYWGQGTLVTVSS VL: EIVMTQSPATLSLSPGERATLSCKASQAVSSAVAWYQQKPGQAPRLLIYWASTRHTGIPARFSGSGSGTDFTLTISSLQPEDFAVYYCQQHYSTPFTFGQGTKLEIK ; retrieve measured pKd.
9.92
